Test: refractive index (Na D-line) (dimensionless)
Conditions: 293.15 K; 101.33 kPa; Liquid; Standard Abbe refractometry
Below: a set of entries, each annotated with reported refractive index.
Lab note: record just the number, no unit beside it.

Reference set, count: 4
CCCO	1.3854
CN(C)C=O [dimethylformamide]	1.4309
CCO	1.361
O	1.3334

The recorded refractive index for entry "CCCC(C)=O" equals 1.3893

The recorded refractive index for entry "CCCCO" equals 1.3989

The recorded refractive index for entry "CCC(C)=O" equals 1.3787

The recorded refractive index for entry "C1CCCCC1" equals 1.4235

The recorded refractive index for entry C[S+](C)[O-] [dimethyl sulfoxide] equals 1.4789
